Assay: photoluminescence quantum yield (fraction); solvent given as SMILES
Conditions: in CS(C)=O
Outcome label depends on photoluminescence quantum yield relative to 0.004: at/above gives Condition met, below gives Condition not met.

Observe how each entry below is paired with its result.
>>> category_label("O=C1/C(=C\\c2ccc3oc4ccccc4c3c2)S(=O)(=O)c2ccccc21")
"Condition met"
>>> category_label("CCOC(=O)CN1C(=O)C2=C(c3ccc(N4CCCCC4)cc3)N(CC(=O)OCC)C(=O)C2=C1c1ccc(C#N)cc1")
"Condition not met"
>>> category_label("N#Cc1cc2ccc(O)cc2oc1=O")
"Condition not met"

Is photoluminescence quantum yield at least 0.004? Consider `O=C1/C(=C2\Sc3ccccc3C2=O)Sc2ccccc21`
Condition met

Confirm if photoluminescence quantum yield reported for the molecule `Nc1ncnc2c1c(-c1ccc3ccccc3c1)nn2[C@H]1C[C@H](O)[C@@H](CO)O1` is 0.004 or above.
Condition met

###

Experiment: photoluminescence quantum yield (fraction); solvent given as SMILES
Conditions: in ClCCl
Quick rule for you: photoluminescence quantum yield at 0.3 or higher means true (1), lower means false (0).

Answered cases to consult:
>>> category_label("C(=C\\c1ccc(-c2ccncc2)cc1)/c1ccc(-c2ccncc2)cc1")
"true (1)"
>>> category_label("CC1(C)c2ccccc2N(c2ccc3c(ccc4nc5ccc6cc(N7c8ccccc8C(C)(C)c8ccccc87)ccc6c5nc43)c2)c2ccccc21")
"false (0)"
>>> category_label("COc1cc(-c2ncc(-c3ccncc3)o2)cc(OC)c1OC")
"true (1)"

Test whether the molecule `COc1ccc([C@@H]2C[C@](O)(c3ccccn3)C[C@](O)(c3ccccn3)[C@H]2C(=O)c2ccc(N(c3ccccc3)c3ccccc3)cc2)cc1` records photoluminescence quantum yield of 0.3 or higher.
false (0)

Kindly determine if photoluminescence quantum yield recorded for `COc1ccc2cc(-c3ccc([N+](=O)[O-])cc3)ccc2c1` is above or exactly 0.3.
false (0)

Reported photoluminescence quantum yield reaches at least 0.3 for `CCCCCCC1(CCCCCC)c2cc(-c3nc(-c4ccc5c(c4)C(CCCCCC)(CCCCCC)c4cc(N6c7ccccc7Sc7ccccc76)ccc4-5)nc(-c4ccc5c(c4)C(CCCCCC)(CCCCCC)c4cc(N6c7ccccc7Sc7ccccc76)ccc4-5)n3)ccc2-c2ccc(N3c4ccccc4Sc4ccccc43)cc21` ?
false (0)

Hi, just wondering whether `CC[N+](CC)=c1ccc2cc3c(=O)oc4cc5c(cc4c3oc-2c1)CCCN5C` shows photoluminescence quantum yield of 0.3 or higher.
false (0)

Tell me whether photoluminescence quantum yield is at least 0.3 here: `c1cnc(-c2c3ccccc3c(-c3cncnc3)c3ccccc23)nc1`
true (1)

###

photoluminescence quantum yield values, listed per item
Assay: photoluminescence quantum yield (fraction); solvent given as SMILES
Conditions: in ClC(Cl)Cl
# answer = number (no unit)

Data request, read-out photoluminescence quantum yield, for `Cc1ccc(/C(C#N)=C/c2cc(/C=C(\C#N)c3ccc(C)cc3)c(-c3ccc(N(c4ccccc4)c4ccccc4)cc3)cc2-c2ccc(N(c3ccccc3)c3ccccc3)cc2)cc1`
0.048

I am curious: what photoluminescence quantum yield value has been reported for `CCCCCCCCCCCCC1(CCCCCCCCCCCC)c2cc(-c3ccc(C=C4C(=O)c5ccccc5C4=O)cc3)ccc2-c2ccc(-c3ccc(C=C4C(=O)c5ccccc5C4=O)cc3)cc21` ?
0.013

What value of measured photoluminescence quantum yield is listed for `CCOC(=O)CSc1nc(-c2ccccc2)c(C)c(C#N)c1C#N` ?
0.033

Please look up its photoluminescence quantum yield: `CCCCCCCCCCOc1cc(OCCCCCCCCCC)cc(C2=C3C(C)=CC(/C=C/c4ccc(OC)cc4)=[N+]3[B-](F)(F)n3c(/C=C/c4ccc(OC)cc4)cc(C=Cc4ccc(OC)cc4)c32)c1`
0.35

Need photoluminescence quantum yield of `CC1(C)Cc2c(c3ccccc3c3nc4c(nc23)c2c(c3ccccc34)OC(C)(C)C2)O1` , thanks.
0.43

Give its photoluminescence quantum yield value. Item: `CCOC(CN1C(=O)C2=C(c3ccc(OC)c(OC)c3)N(CC(OCC)OCC)C(=O)C2=C1c1ccc(OC)c(OC)c1)OCC`
0.9

Given the molecule `COCCN(CCOC)c1ccc(/C=C/c2sc3c4nc(C)sc4ccc3[n+]2C)cc1` , what is its reported photoluminescence quantum yield?
0.05

###

Test: photoluminescence quantum yield (fraction); solvent given as SMILES
Details: in CC1CCCCC1
photoluminescence quantum yield for assorted molecules

>>> endpoint_result("C(=C\\c1c2ccccc2cc2ccccc12)/c1ccccc1")
0.46
>>> endpoint_result("N#Cc1ccc(/C=C/c2ccc3ccc4cccc5ccc2c3c45)cc1")
0.8

Can you look up the measured photoluminescence quantum yield of `CNc1cccc2c1C(=O)c1ccccc1C2=O` for me?
0.0138

What value of photoluminescence quantum yield has been recorded for this entry: `C(=C\c1c2ccccc2cc2ccccc12)/c1ccc2ccccc2n1`
0.41

I am curious: what photoluminescence quantum yield value has been reported for `N#Cc1ccc(/C=C/c2c3ccccc3cc3ccccc23)cc1` ?
0.27

###

Experiment: photoluminescence quantum yield (fraction); solvent given as SMILES
Settings: in CC#N
outcome_measure: photoluminescence quantum yield
Please reply with the value in numeric form only.

// below: answered compounds
>>> endpoint_result("Nc1ccc2c(c1)C(=O)NC2=O")
0.63
>>> endpoint_result("CCN(CC)c1ccc(/C=N/c2ccccc2/N=C/c2ccc(N(CC)CC)cc2O)c(O)c1")
0.22
>>> endpoint_result("N#Cc1cc(C#Cc2c(F)c(F)nc(F)c2F)c(C#Cc2c(F)c(F)nc(F)c2F)cc1C#N")
0.49

GET /values?readout=photoluminescence quantum yield&item= `N#Cc1ccc(/C=C/c2c3ccccc3cc3ccccc23)cc1`
0.003

I would be grateful if you could share the reported photoluminescence quantum yield for `CN(C)c1ccc(C(=O)Nc2ccc(Cl)cc2)cc1` .
0.0171

Consider the compound `Cc1cc(C)c(B(c2c(C)cc(C)cc2C)c2cc3ccc4ccccc4c3c3c2cc(N(C)C)c2ccccc23)c(C)c1` and give its measured photoluminescence quantum yield.
0.04

###

Test: photoluminescence quantum yield (fraction); solvent given as SMILES
Conditions: in Cc1ccccc1
Doc: threshold 0.7 (exclusive). Items with photoluminescence quantum yield beneath it return Condition met; others return Condition not met.

>>> category_label("[O-]c1ccccc1-c1[nH+]c2c3ccccc3c3ccccc3c2n1-c1ccccc1")
"Condition met"
>>> category_label("CCCCCCCCCCC(CCCCCCCCCC)Cn1c2cc(-c3ccc(C(C)(C)C)cc3)c3cccc4c5ccc6c7cc(-c8cc(C(C)(C)C)cc(C(C)(C)C)c8)n8c7c(c7cc1c(c5c76)c2c34)=C1C=CC(c2cc(C(C)(C)C)cc(C(C)(C)C)c2)=[N+]1[B-]8(F)F")
"Condition met"
>>> category_label("O=c1[nH]c2[n+](c3ccccc13)[B-](F)(F)Oc1ccccc1-2")
"Condition met"

# check: photoluminescence quantum yield < 0.7 for `Cn1ccc(-c2nc3ccccc3nc2/C=C/N2CCCC2)c1`
Condition met

Please state whether photoluminescence quantum yield is below 0.7 for `CCCCCCC(CCCCCC)N1C(=O)c2cccc3c(-c4ccc(OC)c5ccccc45)ccc(c23)C1=O`
Condition met

Is photoluminescence quantum yield strictly under 0.7 for the entry `O=S(=O)(c1ccc(N(c2ccccc2)c2ccccc2)cc1)c1ccc(S(=O)(=O)c2ccc(N(c3ccccc3)c3ccccc3)cc2)cc1` ?
Condition met

Please determine if `N#Cc1cc2nc3c(nc2cc1C#N)C1c2ccc(N(c4ccccc4)c4ccccc4)cc2C3c2ccc(N(c3ccccc3)c3ccccc3)cc21` is below 0.7 in terms of photoluminescence quantum yield.
Condition met

For `N#Cc1ccc(N2c3ccccc3C(c3ccccc3)(c3ccccc3)c3ccccc32)cc1` , is the recorded photoluminescence quantum yield below the cut-off of 0.7?
Condition met

###

Assay: photoluminescence quantum yield (fraction); solvent given as SMILES
Conditions: in C1CCCCC1
Some compounds, each annotated with its measured photoluminescence quantum yield.
Reply: number alone, nothing else.

Previously resolved entries follow.
>>> endpoint_result("CCC(C)(C)c1ccc(-c2ccc3c(c2)C(CCOC)(CCOC)c2cc(C(C)(C)CC)ccc2-3)cc1")
0.71
>>> endpoint_result("Cc1ccc(C2=C3C=C(I)C(I)=[N+]3[B-](F)(F)n3c2cc(I)c3I)cc1")
0.099
>>> endpoint_result("CC1(C)Cc2c(c3ccccc3c3nc4c(nc23)c2c(c3ccccc34)OC(C)(C)C2)O1")
0.43
>>> endpoint_result("ClC(Cl)=C1c2ccccc2C(C2(Cl)c3ccccc3C(=C(Cl)Cl)c3ccccc32)c2ccccc21 (stereo unspecified)")
0.3
>>> endpoint_result("CN(C)c1ccc(C(=O)Nc2ccc(F)cc2)cc1")
0.0011
>>> endpoint_result("c1ccc2c(-n3c4ccccc4c4ccccc43)cccc2c1")
0.54

Could you share which photoluminescence quantum yield value was measured for `COC(=O)c1ccc(NC(=O)c2ccc(N(C)C)cc2)cc1` ?
0.0148

Need photoluminescence quantum yield, item `Cc1oc(-c2ccccc2)nc1C(=O)O`
0.16

Report photoluminescence quantum yield for `Cc1ccc(C2=C3C=C(I)C=[N+]3[B-](F)(F)n3c2cc(I)c3I)cc1` please.
0.06

I have this compound here, `c1ccc2c(c1)Sc1ccccc1N2c1ccc2c(ccc3nc4ccc5cc(N6c7ccccc7Sc7ccccc76)ccc5c4nc32)c1` , and I need its recorded photoluminescence quantum yield.
0.06

Sample `CC1(C)c2ccccc2N(c2ccc3c(ccc4nc5ccc6cc(N7c8ccccc8C(C)(C)c8ccccc87)ccc6c5nc43)c2)c2ccccc21` — what was its photoluminescence quantum yield?
0.16

Param item = `N#Cc1cc2ccc(O)cc2oc1=O` ; retrieve measured photoluminescence quantum yield.
0.0105
